study_target: HLA-B*54:01 (human, UniProt P01889 25-309)
test_method_notes: in vitro peptide-MHC affinity measurement
pIC50: −log10 of the molar value.
observable: pIC50

P: FPKETFEGP
Q: YPVYQPVGP
Task: Which has the smaller recorded pIC50, P or Q ? Choose, then provide that item's label.
Output: P
(P: 7.79, Q: 8.77)

P: SAPVNFISA
Q: YGFVNYVTA
Task: Which has the smaller recorded pIC50, P or Q ? Choose, then provide that item's label.
Output: P
(P: 7.78, Q: 8.22)
